Kindly state Physical data (logP) for each of the entries shown.
# ASSAY_METHOD_TEXT: log P determination by HPLC (EEC Directive 79/831 Annex V.A8, gradient method)
# Type: physicochemical
Keep the answer to the number alone.

Entry under test: O=C(O)/C=C/c1c(-c2ccc(-c3ccccc3)cc2)nc2sc(C(F)(F)F)nn12 . Its Physical data (logP) was 3.77

Entry O=Cc1c(-c2ccc(-c3ccc(OC(F)(F)F)cc3)cc2)nc2sc(C(F)(F)F)nn12 , Physical data (logP) reported as 4.78

O=C(/C=C/c1c(-c2ccccc2Cl)nc2sc(C(F)(F)F)nn12)NCCc1ccc(Cl)cc1 yielded Physical data (logP) of 4.09

The reported value for O=Cc1c(-c2ccc(Cl)nc2)nc2sc(C(F)(F)F)nn12 in terms of Physical data (logP) is 2.54

The reported value for CC(C)CN(C)C(=O)/C=C/c1c(-c2cccc(Cl)c2)nc2sc(C(F)(F)F)nn12 in terms of Physical data (logP) is 4.63

Recorded result, O=C(/C=C/c1c(-c2ccc(Cl)cc2)nc2sc(C(F)(F)F)nn12)N1CCOCC1 , Physical data (logP): 3.27

// sample CC(C)C(C)NC(=O)/C=C/c1c(-c2ccc(Cl)cc2)nc2sc(C(F)(F)F)nn12 (centres unmarked) , its Physical data (logP) was 4.25

Consider O=C(/C=C/c1c(-c2ccc(Cl)cc2)nc2sc(C(F)(F)F)nn12)N1CCCCC1 . Its measured Physical data (logP) is 4.31
